target: human muscarinic M4 receptor (Homo sapiens, UniProt P08173); construct: expressed in transfected cells; experiment: Alphascreen Surefire phospho-ERK1/2 functional assay, M4; format: cell-based; details: CHO cells stably expressing human M4; phospho-ERK1/2; * = variable results; read-out: pEC50 M4 (converted)
Measurement label: EC50 (nM)

Answered examples (2):
CCOC(=O)N1CCC2(CC(N3CCC(C4CCCN(CC)C4=O)CC3)C2)C1 (single isomer, unassigned) [4-5 Isomer 2] = 15.8
CCOC(=O)N1CCC2(CC(N3CCC([C@@H]4CCCN4C(=O)NC)CC3)C2)C1 (single isomer, unassigned) [2-17 Isomer 2] = 3.16

[1] CCOC(=O)N1CCC2(CC(N3CCC(c4cc[nH]c(=O)c4)CC3)C2)C1 (single isomer, unassigned) [3-16 Isomer 2]
[2] CCOC(=O)N1CCC2(CC(N3CCC(c4nc(C)cn4C)CC3)C2)C1 (single isomer, unassigned) [1-12 Isomer 2]
Request: Given the listed records, identify the one among 1 and 2 with higher EC50. Selection: enter the item's label.
Result: 1
(1: 2510 nM, 2: 126 nM)

====

molecular target: human muscarinic M4 receptor (Homo sapiens, UniProt P08173); construct: expressed in transfected cells; experiment: Alphascreen Surefire phospho-ERK1/2 functional assay, M4; type: cell-based; settings: CHO, read-out: % Emax cf. ACh, M4, CHO cells stably expressing human M4; relative to ACh
Measurement label: Emax (%)

CCOC(=O)N1CCC2(CC(N3CCC(N4CCCCC4)CC3)C2)C1 (single isomer, unassigned) [4-10 Isomer 2] = 31
CCOC(=O)N1CCC2(CC(N3CCC(C4CCCN4C(=O)OC)CC3)C2)C1 (single isomer, unassigned) [2-11 Isomer 2] = 100
CCOC(=O)N1CCC2(CC(N3CCC(c4cc(N)n[nH]4)CC3)C2)C1 (single isomer, unassigned) [1-19 Isomer 2] = 48

[A] CCOC(=O)N1CCC2(CC(N3CCC(c4cnc(OC)cc4C)CC3)C2)C1 (single isomer, unassigned) [3-6 Isomer 2]
[B] CCOC(=O)N1CCC2(CC(N3CCC([C@@H]4CCCN4C(=O)C4CC4)CC3)C2)C1 (single isomer, unassigned) [2-8 Isomer 2]
[C] CCOC(=O)N1CCC2(CC(N3CCC(N4CC(F)(F)C[C@H]4C(=O)NC)CC3)C2)C1 (single isomer, unassigned) [2-93 Isomer 2]
[D] CCOC(=O)N1CCC2(CC(N3CCC(C4CCCN4C)CC3)C2)C1 (single isomer, unassigned) [2-22 Isomer 2]
Request: Could you please sort these 4 entries by Emax from high to low? Would you mind listing the labels in the order requested?
Result: B, A, D, C

[P] CCOC(=O)N1CCC2(CC(N3CCC([C@@H]4CCCN4C(=O)C4CCC4)CC3)C2)C1 (single isomer, unassigned) [2-9 Isomer 2]
[Q] CCOC(=O)N1CCC2(CC(N3CCC(N4C(=O)CCC4=O)CC3)C2)C1 (single isomer, unassigned) [2-112 Isomer 2]
[R] CCOC(=O)N1CCC2(CC(N3CCC(N4CSC[C@@H]4C(=O)OC)CC3)C2)C1 (single isomer, unassigned) [2-97 Isomer 2]
Request: Could you please sort these 3 entries by Emax from high to low? Would you mind listing the labels in the order requested?
Result: P, Q, R

====

Target: human muscarinic M4 receptor (Homo sapiens, UniProt P08173)
Construct: expressed in transfected cells
Sequence (P08173 1-479): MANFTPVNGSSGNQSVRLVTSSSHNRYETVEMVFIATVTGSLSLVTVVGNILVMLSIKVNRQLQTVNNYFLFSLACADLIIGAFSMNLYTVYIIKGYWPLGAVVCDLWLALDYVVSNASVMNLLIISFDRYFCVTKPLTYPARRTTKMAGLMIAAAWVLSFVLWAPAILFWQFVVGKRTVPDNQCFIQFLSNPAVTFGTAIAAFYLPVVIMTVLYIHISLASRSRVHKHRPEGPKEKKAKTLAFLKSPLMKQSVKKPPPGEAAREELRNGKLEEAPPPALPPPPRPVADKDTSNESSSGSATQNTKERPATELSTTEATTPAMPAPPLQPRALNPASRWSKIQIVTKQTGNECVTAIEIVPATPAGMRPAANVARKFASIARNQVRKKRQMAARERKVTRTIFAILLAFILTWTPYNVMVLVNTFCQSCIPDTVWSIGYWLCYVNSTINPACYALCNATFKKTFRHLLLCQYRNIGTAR
Assay: Alphascreen Surefire phospho-ERK1/2 functional assay, M4
Format: cell-based
Conditions: CHO, read-out: % Emax cf. ACh, M4, CHO cells stably expressing human M4; relative to ACh
Measurement label: Emax (%)

[I] CCOC(=O)N1CCC2(CC(N3CCC([C@@H]4CCCN4C(=O)COC)CC3)C2)C1 (single isomer, unassigned) [2-46 Isomer 2]
[II] CCOC(=O)N1CCC2(CC(N3CCC(n4nnnc4C)CC3)C2)C1 (single isomer, unassigned) [1-63 Isomer 2]
Request: Given the listed records, identify the one among I and II with higher Emax. Selection: enter the item's label.
Result: I

[I] CCOC(=O)N1CCC2(CC(N3CCC(N4CCCC45CCOC5=O)CC3)C2)C1 (single isomer, unassigned) [2-96 Isomer 2]
[II] CCOC(=O)N1CCC2(CC(N3CCC([C@@H]4CCCN4c4nncs4)CC3)C2)C1 (single isomer, unassigned) [2-83 Isomer 2]
Request: Given the listed records, identify the one among I and II with higher Emax. Selection: enter the item's label.
Result: II

[A] CCOC(=O)N1CCC2(CC(N3CCC(N4CCC[C@@H]4C(=O)OC)CC3)C2)C1 (single isomer, unassigned) [2-84 Isomer 2]
[B] CCOC(=O)N1CCC2(CC(N3CCC(c4nc(C)no4)CC3)C2)C1 (single isomer, unassigned) [1-29 Isomer 2]
[C] CCOC(=O)N1CCC2(CC(N3CCC(N4CC(F)(F)C[C@@H]4C(N)=O)CC3)C2)C1 (single isomer, unassigned) [2-90 Isomer 2]
Request: Write the entries in order, lowest recorded Emax first. Would you mind listing the labels in the order requested?
Result: B, C, A
(B: 36%, C: 53%, A: 82%)

[A] CCOC(=O)N1CCC2(CC(N3CCC(c4nccc(N)n4)CC3)C2)C1 (single isomer, unassigned) [3-9 Isomer 2]
[B] CCOC(=O)N1CCC2(CC(N3CCC(N4CC[C@H](F)C4)CC3)C2)C1 (single isomer, unassigned) [2-99 Isomer 2]
Request: I'm curious whether A or B has the smaller Emax number. Which is it? Selection: enter the item's label.
Result: B

[A] CCOC(=O)N1CCC2(CC(N3CCC([C@@H]4CCCN4C(=O)N(C)C4COC4)CC3)C2)C1 (single isomer, unassigned) [2-57 Isomer 2]
[B] CCOC(=O)N1CCC2(CC(N3CCC([C@@H]4CCCN4CC(=O)N(C)C)CC3)C2)C1 (single isomer, unassigned) [2-73 Isomer 2]
Request: I'm curious whether A or B has the smaller Emax number. Which is it? Selection: enter the item's label.
Result: B
